# Tested on: U-2932
# protocol: growth inhibition by drug plus 177Lu-lilotomab satetraxetan (1 - RLU/untreated control) (fraction); higher = stronger inhibition
# cond: 1000 nM; time (day): 5; 177Lu-lilotomab satetraxetan 1 ug/ml
Where a name gives a salt, the structure may show the parent alone.
Note that class boundaries on growth inhibition by drug plus 177Lu-lilotomab satetraxetan are low range (below -0.001), mid range (-0.001 to below 0.1), high range (0.1 or more)

{"molecule": "N#Cc1ccc(C(c2ccc(C#N)cc2)n2cncn2)cc1", "label": "low range"}
{"molecule": "NC(=O)Nc1sc(-c2ccc(F)cc2)cc1C(N)=O", "label": "high range"}
{"molecule": "CC[C@@]1(O)C(=O)OCc2c1cc1n(c2=O)Cc2cc3c(CN(C)C)c(O)ccc3nc2-1 [Topotecan HCl]", "label": "high range"}
{"molecule": "Nc1ccc(-c2ccc3ncc4ccc(=O)n(-c5cccc(C(F)(F)F)c5)c4c3c2)cn1", "label": "high range"}
{"molecule": "OCCn1cc(-c2cnc3nnn(Cc4ccc5ncccc5c4)c3n2)cn1", "label": "mid range"}
{"molecule": "CC1(C)CNc2cc(NC(=O)c3cccnc3NCc3ccncc3)ccc21 [Motesanib Diphosphate]", "label": "low range"}

Task: Which class holds `COc1cc(C(=O)NC(=S)Nc2cccc(NC(=O)c3ccccc3)c2)cc(OC)c1OC` ?
Result: mid range

Task: Which class holds CC(c1cc2ccccc2s1)N(O)C(N)=O (stereo not given) ?
Result: low range

Task: Which class holds `CC(C)(C#N)c1cc(Cn2cncn2)cc(C(C)(C)C#N)c1` ?
Result: low range

Task: Which class holds `N#Cc1ccc(NC(=O)Nc2ccccc2Br)c2n[nH]nc12` ?
Result: high range

###

# System: RIVA
# protocol: growth inhibition by drug alone (1 - RLU/untreated control) (fraction); higher = stronger inhibition
# cond: 10 nM; time (day): 3; 177Lu-lilotomab satetraxetan 0 ug/ml
Counter-ions that a name gives are not always drawn.
The reader will find reported growth inhibition by drug alone values listed item by item below.
Answer with the value's number alone.

{"compound": "N#CCNC(=O)c1ccc(-c2ccnc(Nc3ccc(N4CCOCC4)cc3)n2)cc1", "assay.target": "RIVA", "growth inhibition by drug alone": -0.164}

Task: # query: growth inhibition by drug alone of entry CO[C@H]1/C=C\C=C(/C)C(=O)NC2=CC(=O)C(NCCN(C)C)=C(C[C@@H](C)C[C@H](OC)[C@H](O)[C@@H](C)/C=C(\C)[C@@H]1OC(N)=O)C2=O [17-DMAG HCl (Alvespimycin)]
Result: 0.132

Task: # query: growth inhibition by drug alone of entry CC(C)n1c(/C=C/C(O)CC(O)CC(=O)O)c(-c2ccc(F)cc2)c2ccccc21 (configuration not stated) [Fluvastatin sodium (Lescol)]
Result: -0.148

Task: # query: growth inhibition by drug alone of entry COc1ccc(C2CC(c3ccccc3)=NN2c2ccc(S(N)(=O)=O)cc2)cc1 (configuration not stated)
Result: -0.0673

Task: # query: growth inhibition by drug alone of entry `Cc1ccc(NC(=O)c2ccc(CN3CCN(C)CC3)cc2)cc1Nc1nccc(-c2cccnc2)n1`
Result: -0.0508

Task: # query: growth inhibition by drug alone of entry `CCN(CC)C(=S)SSC(=S)N(CC)CC`
Result: -0.0278

Task: # query: growth inhibition by drug alone of entry `NC(=O)Nc1cc(-c2cccc(F)c2)sc1C(=O)N[C@H]1CCCNC1`
Result: 0.0596

Task: # query: growth inhibition by drug alone of entry O=C1[C@H](CC[C@H](O)c2ccc(F)cc2)[C@@H](c2ccc(O)cc2)N1c1ccc(F)cc1 [Ezetimibe (Zetia)]
Result: 0.0453

Task: # query: growth inhibition by drug alone of entry `Cn1cc(-c2ccc3nnc(C(F)(F)c4ccc5ncccc5c4)n3n2)cn1`
Result: -0.216

Task: # query: growth inhibition by drug alone of entry `COc1ccc(/C=C\c2cc(OC)c(OC)c(OC)c2)cc1O`
Result: 0.953

Task: # query: growth inhibition by drug alone of entry `O=NN(CCCl)C(=O)NC1CCCCC1`
Result: -0.055

Task: # query: growth inhibition by drug alone of entry `CC[C@]1(O)C[C@H]2CN(CCc3c([nH]c4ccccc34)[C@@](C(=O)OC)(c3cc4c(cc3OC)N(C=O)[C@H]3[C@@](O)(C(=O)OC)[C@H](OC(C)=O)[C@]5(CC)C=CCN6CC[C@]43[C@@H]65)C2)C1`
Result: 0.941

Task: # query: growth inhibition by drug alone of entry `Cc1ccc(Nc2nccc(N(C)c3ccc4c(C)n(C)nc4c3)n2)cc1S(N)(=O)=O`
Result: 0.149

###

# Tested on: U-2932
# protocol: growth inhibition by drug plus 177Lu-lilotomab satetraxetan (1 - RLU/untreated control) (fraction); higher = stronger inhibition
# cond: 10 nM; time (day): 4; 177Lu-lilotomab satetraxetan 1 ug/ml
Where a name gives a salt, the structure may show the parent alone.
quantity.kind: growth inhibition by drug plus 177Lu-lilotomab satetraxetan
Answer with the value's number alone.

{"molecule": "CCn1c(-c2nonc2N)nc2c(C#CC(C)(C)O)ncc(OC[C@H]3CCCNC3)c21", "value": 0.000859}
{"molecule": "C[C@]12CC[C@@H]3c4ccc(O)cc4CC[C@H]3[C@@H]1CC[C@@H]2O", "value": 0.113}
{"molecule": "CN(C)c1nc(N(C)C)nc(N(C)C)n1", "value": -0.0735}

Task: # query: growth inhibition by drug plus 177Lu-lilotomab satetraxetan of entry `Nc1nc(Cl)nc2c1ncn2[C@H]1C[C@H](O)[C@@H](CO)O1`
Result: 0.0736

Task: # query: growth inhibition by drug plus 177Lu-lilotomab satetraxetan of entry O=C1CN2Cc3c(ccc(Cl)c3Cl)N=C2N1 [Anagrelide hydrochloride]
Result: 0.119

###

# System: RIVA
# protocol: growth inhibition by drug alone (1 - RLU/untreated control) (fraction); higher = stronger inhibition
# cond: 100 nM; time (day): 3; 177Lu-lilotomab satetraxetan 0 ug/ml
Counter-ions that a name gives are not always drawn.
Note that class boundaries on growth inhibition by drug alone are low (below -0.2), intermediate (-0.2 to below 0.3), high (0.3 or more)

Solved cases (5 shown):
{"compound": "C=CC(=O)N1CCC[C@@H](n2nc(-c3ccc(Oc4ccccc4)cc3)c3c(N)ncnc32)C1", "label": "high"}
{"compound": "OC[C@H]1O[C@@H](n2cnc3c2N=CNC[C@H]3O)C[C@@H]1O", "label": "low"}
{"compound": "N#CC(c1ccnc(NCCc2cccnc2)n1)c1nc2ccccc2s1 (stereo not drawn)", "label": "low"}
{"compound": "CCCC(CCC)C(=O)O [Valproic acid sodium salt (Sodium valproate)]", "label": "intermediate"}
{"compound": "CNC(=O)[C@@H](NC(=O)[C@H](CC(C)C)[C@H](O)C(=O)NO)C(C)(C)C", "label": "low"}

Task: Which class holds C#Cc1cccc(Nc2ncnc3cc(OCCOC)c(OCCOC)cc23)c1 [Erlotinib HCl] ?
Result: high

Task: Which class holds `Nc1ccccc1NC(=O)c1ccc(CNc2nccc(-c3cccnc3)n2)cc1` ?
Result: high

Task: Which class holds `Cc1ccnc(NS(=O)(=O)c2ccc(NC(=O)Nc3ccc(S(=O)(=O)Nc4nccc(C)n4)cc3)cc2)n1` ?
Result: low

Task: Which class holds `CC(C)C[C@@H](C(=O)N[C@H](C(=O)OC1CCCC1)c1ccccc1)[C@H](O)C(=O)NO` ?
Result: low

Task: Which class holds `CN(C)C/C=C/C(=O)Nc1cc2c(Nc3ccc(F)c(Cl)c3)ncnc2cc1O[C@H]1CCOC1` ?
Result: intermediate

Task: Which class holds `O=C(NC1CCNCC1)c1n[nH]cc1NC(=O)c1c(Cl)cccc1Cl` ?
Result: intermediate

Task: Which class holds CCCC(=O)[O-].[Na+] [Sodium butyrate] ?
Result: low

Task: Which class holds CNC(=O)c1ccc(N2C(=S)N(c3ccc(C#N)c(C(F)(F)F)c3)C(=O)C2(C)C)cc1F [MDV3100 (Enzalutamide)] ?
Result: intermediate

Task: Which class holds O=C(CCc1ccc(O)cc1)c1c(O)cc(O)cc1O [Phloretin (Dihydronaringenin)] ?
Result: intermediate

###

# System: U-2932
# protocol: growth inhibition by drug plus 177Lu-lilotomab satetraxetan (1 - RLU/untreated control) (fraction); higher = stronger inhibition
# cond: 1000 nM; time (day): 6; 177Lu-lilotomab satetraxetan 1 ug/ml
Counter-ions that a name gives are not always drawn.
The reader will find reported growth inhibition by drug plus 177Lu-lilotomab satetraxetan values listed item by item below.
Answer with the value's number alone.

{"molecule": "CN[C@@H](C)C(=O)N[C@H]1CN(C(=O)CC(C)C)CC[C@H]2CC[C@@H](C(=O)NC(c3ccccc3)c3ccccc3)N2C1=O", "value": 0.159}

Task: # query: growth inhibition by drug plus 177Lu-lilotomab satetraxetan of entry COc1ccc(C2CC(c3ccccc3)=NN2c2ccc(S(N)(=O)=O)cc2)cc1 (stereo not given)
Result: 0.0654

Task: # query: growth inhibition by drug plus 177Lu-lilotomab satetraxetan of entry O=C(O)C(=O)O.[NH-]C1CCCCC1[NH-].[Pt+2] (stereo not given) [Oxaliplatin (Eloxatin)]
Result: 0.608

Task: # query: growth inhibition by drug plus 177Lu-lilotomab satetraxetan of entry `Cc1ccc(C(=O)N(CCCN)[C@@H](c2nc3cc(Cl)ccc3c(=O)n2Cc2ccccc2)C(C)C)cc1`
Result: 0.984

Task: # query: growth inhibition by drug plus 177Lu-lilotomab satetraxetan of entry CC(C)n1c(/C=C/C(O)CC(O)CC(=O)O)c(-c2ccc(F)cc2)c2ccccc21 (stereo not given) [Fluvastatin sodium (Lescol)]
Result: 0.221

Task: # query: growth inhibition by drug plus 177Lu-lilotomab satetraxetan of entry `CCN1CCN(Cc2ccc(-c3cc4c(N[C@H](C)c5ccccc5)ncnc4[nH]3)cc2)CC1`
Result: -0.0824

Task: # query: growth inhibition by drug plus 177Lu-lilotomab satetraxetan of entry CO[C@H]1C[C@@H]2CC[C@@H](C)[C@@](O)(O2)C(=O)C(=O)N2CCCC[C@H]2C(=O)O[C@H]([C@H](C)C[C@@H]2CC[C@@H](OCCO)[C@H](OC)C2)CC(=O)[C@H](C)/C=C(\C)[C@@H](O)[C@@H](OC)C(=O)[C@H](C)C[C@H](C)/C=C/C=C/C=C/1C [Everolimus (RAD001)]
Result: 0.702

Task: # query: growth inhibition by drug plus 177Lu-lilotomab satetraxetan of entry `O=C(O)c1ccc(-c2c[nH]c3ncc(-c4ccccc4)cc23)cc1C1CCCC1`
Result: 0.339

Task: # query: growth inhibition by drug plus 177Lu-lilotomab satetraxetan of entry COc1cccc2c1C(=O)c1c(O)c3c(c(O)c1C2=O)C[C@@](O)(C(C)=O)C[C@@H]3O[C@H]1C[C@H](N)[C@H](O)[C@H](C)O1 [Daunorubicin HCl (Daunomycin HCl)]
Result: 0.987

Task: # query: growth inhibition by drug plus 177Lu-lilotomab satetraxetan of entry `N#CC[C@H](C1CCCC1)n1cc(-c2ncnc3[nH]ccc23)cn1`
Result: -0.122

Task: # query: growth inhibition by drug plus 177Lu-lilotomab satetraxetan of entry `OCCn1cc(-c2ccc3c(c2)CC/C3=N\O)c(-c2ccncc2)n1`
Result: 0.0758

Task: # query: growth inhibition by drug plus 177Lu-lilotomab satetraxetan of entry CC[C@H](CO)Nc1nc(NCc2ccccc2)c2ncn(C(C)C)c2n1 [Roscovitine (Seliciclib, CYC202)]
Result: -0.013

Task: # query: growth inhibition by drug plus 177Lu-lilotomab satetraxetan of entry `Cc1ccc(F)c(NC(=O)Nc2ccc(-c3cccc4[nH]nc(N)c34)cc2)c1`
Result: 0.253

Task: # query: growth inhibition by drug plus 177Lu-lilotomab satetraxetan of entry `CCC(=O)N1CCN(c2ccc(-n3c(=O)ccc4cnc5ccc(-c6cnc7ccccc7c6)cc5c43)cc2C(F)(F)F)CC1`
Result: 0.879

Task: # query: growth inhibition by drug plus 177Lu-lilotomab satetraxetan of entry CN1C(=O)C(Cc2c[nH]c3ccccc23)NC1=S (stereo not given)
Result: 0.224
